Taken from patent US20040229960A1.

# procedure_summary: Biodistribution of 14C-CA4P following sub-Tenon's injection
# Format: in vivo, New Zealand rabbits
# recorded_conditions: plasma; 100 mg/ml sub-Tenon's
reported_property: Cmax (µM)
A number alone suffices; assume µM.

Prompt: // lookup Cmax for COc1ccc(/C=C\c2cc(OC)c(OC)c(OC)c2)cc1OP(=O)([O-])[O-].[Na+].[Na+] [CA4P, combretastatin A4 disodium phosphate]
Completion: 9.3

* * *

# procedure_summary: Biodistribution of 14C-CA4P following subconjunctival injection
# Assay type: in vivo, New Zealand rabbits
# recorded_conditions: retina; 100 mg/ml subconjunctival
reported_property: Cmax (µM)
A number alone suffices; assume µM.

Prompt: // lookup Cmax for COc1ccc(/C=C\c2cc(OC)c(OC)c(OC)c2)cc1OP(=O)([O-])[O-].[Na+].[Na+] [CA4P, combretastatin A4 disodium phosphate]
Completion: 174

* * *

# procedure_summary: Biodistribution of 14C-CA4P following intravitreal injection
# Type: in vivo, New Zealand rabbits
# recorded_conditions: retina; 1 mg/ml intravitreal
reported_property: Cmax (µM)
A number alone suffices; assume µM.

Prompt: // lookup Cmax for COc1ccc(/C=C\c2cc(OC)c(OC)c(OC)c2)cc1OP(=O)([O-])[O-].[Na+].[Na+] [CA4P, combretastatin A4 disodium phosphate]
Completion: 160

* * *

# procedure_summary: Biodistribution of 14C-CA4P following topical administration of a solution formulation
# Type: in vivo, New Zealand rabbits
# recorded_conditions: retina; 10% topical solution
reported_property: Cmax (µM)
A number alone suffices; assume µM.

Prompt: // lookup Cmax for COc1ccc(/C=C\c2cc(OC)c(OC)c(OC)c2)cc1OP(=O)([O-])[O-].[Na+].[Na+] [CA4P, combretastatin A4 disodium phosphate]
Completion: 4.2

* * *

# procedure_summary: Biodistribution of 14C-CA4P following topical administration of a gel
# Type: in vivo, New Zealand rabbits
# recorded_conditions: choroid; 1% topical gel
reported_property: Cmax (nM)
A number alone suffices; assume nM.

Prompt: // lookup Cmax for COc1ccc(/C=C\c2cc(OC)c(OC)c(OC)c2)cc1OP(=O)([O-])[O-].[Na+].[Na+] [CA4P, combretastatin A4 disodium phosphate]
Completion: 2800

* * *

# procedure_summary: Biodistribution of 14C-CA4P following topical administration of a solution formulation
# Assay type: in vivo, New Zealand rabbits
# recorded_conditions: plasma; 1% topical solution
reported_property: Cmax (nM)
A number alone suffices; assume nM.

Prompt: // lookup Cmax for COc1ccc(/C=C\c2cc(OC)c(OC)c(OC)c2)cc1OP(=O)([O-])[O-].[Na+].[Na+] [CA4P, combretastatin A4 disodium phosphate]
Completion: 70

* * *

# procedure_summary: Biodistribution of 14C-CA4P following topical administration of a gel
# Assay type: in vivo, New Zealand rabbits
# recorded_conditions: plasma; 1% topical gel
reported_property: Cmax (nM)
A number alone suffices; assume nM.

Prompt: // lookup Cmax for COc1ccc(/C=C\c2cc(OC)c(OC)c(OC)c2)cc1OP(=O)([O-])[O-].[Na+].[Na+] [CA4P, combretastatin A4 disodium phosphate]
Completion: 90

* * *

# procedure_summary: Biodistribution of 14C-CA4P following topical administration of a solution formulation
# Assay type: in vivo, New Zealand rabbits
# recorded_conditions: plasma; 10% topical solution
# Experimental: ^14C-CA4P (OXiGENE Inc., Watertown, Mass.) was resuspended in 100 ul volume of saline solution and injected with a 30 G needle into the right eyes of anesthesized male New Zealand rabbits (4 months old, 1.8-2.5 kg, n=3 per sample). Three different concentrations of ^14C-CA4P were tested (1, 10, 100 mg/ml) corresponding to doses of 1, 5, and 5 uCi of applied radioactivity respectively. A blank control group was also included. Rabbits were anaesthetized at 1, 6, 24, and 48 hours for blood sampling. […]
reported_property: Cmax (nM)
A number alone suffices; assume nM.

Prompt: // lookup Cmax for COc1ccc(/C=C\c2cc(OC)c(OC)c(OC)c2)cc1OP(=O)([O-])[O-].[Na+].[Na+] [CA4P, combretastatin A4 disodium phosphate]
Completion: 1270
